- assayed_system: NRAS G12C (Homo sapiens (Human), UniProt P01111+P62937, G12C)
- Sequence (P01111 whole entry G12C): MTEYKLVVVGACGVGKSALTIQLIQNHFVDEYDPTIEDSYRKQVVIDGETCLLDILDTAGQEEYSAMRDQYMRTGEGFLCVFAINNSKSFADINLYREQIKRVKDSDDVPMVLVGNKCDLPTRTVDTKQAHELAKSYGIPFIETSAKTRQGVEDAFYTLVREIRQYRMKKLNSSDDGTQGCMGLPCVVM
- Sequence (P62937 whole entry): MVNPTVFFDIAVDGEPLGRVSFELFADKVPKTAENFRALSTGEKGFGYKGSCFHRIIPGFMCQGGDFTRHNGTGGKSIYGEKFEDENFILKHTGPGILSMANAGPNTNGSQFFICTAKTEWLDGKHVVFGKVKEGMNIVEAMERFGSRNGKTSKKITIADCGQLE
- protocol_description: Ras-Raf disruption/FRET/MOA assay (BRAF RBD, Cyclophilin A)
- Format: biochemical
- measurement_setup: read-out: NRAS G12C FRET data IC50
pIC50: −log10 of the molar value.
readout_name: pIC50

molecule="CCn1c(-c2cccnc2[C@H](C)OC)c2c3cc(ccc31)-c1csc(n1)C[C@H](NC(=O)N1CC[C@@H]1COC)C(=O)N1CCC[C@H](N1)C(=O)OCC(C)(C)C2 [Compound A264]" readout_name=pIC50 measured_value="7.00 to 8.00"
molecule="CCn1c(-c2cccnc2[C@H](C)OC)c2c3cc(ccc31)-c1csc(n1)C[C@H](NC(=O)[C@H](C(C)C)N(C)C(=O)N1CC(O)C1)C(=O)N1CCC[C@H](N1)C(=O)OCC(C)(C)C2 [Compound A358]" readout_name=pIC50 measured_value="7.00 to 8.00"
molecule="CCN(CC)C(=O)N(C)[C@H](C(=O)N[C@H]1Cc2nc(cs2)-c2ccc3c(c2)c(c(-c2cccnc2[C@H](C)OC)n3CC)CC(C)(C)COC(=O)[C@@H]2CCCN(N2)C1=O)C(C)C [Compound A351]" readout_name=pIC50 measured_value="7.00 to 8.00"
molecule="CCn1c(-c2cccnc2[C@H](C)OC)c2c3cc(ccc31)-c1cc(O)cc(c1)C[C@H](NC(=O)[C@H](C(C)C)N(C)C(=O)[C@H]1CCN(C(=O)[C@]3(C)CCCN3)C1)C(=O)N1CCC[C@H](N1)C(=O)OCC(C)(C)C2 [Compound A380]" readout_name=pIC50 measured_value="7.00 to 8.00"
molecule="CCn1c(-c2cccnc2[C@H](C)OC)c2c3cc(ccc31)-c1cc(O)cc(c1)C[C@H](NC(=O)[C@H](C(C)C)N(C)C(=O)[C@H]1CCN(C(=O)[C@H]3CCCN3C)C1)C(=O)N1CCC[C@H](N1)C(=O)OCC(C)(C)C2 [Compound A371]" readout_name=pIC50 measured_value="7.00 to 8.00"
molecule="CCn1c(-c2cnccc2COC)c2c3cc(ccc31)-c1cc(O)cc(c1)C[C@H](NC(=O)[C@H](C(C)C)N(C)C(=O)N1CCNCC1)C(=O)N1CCC[C@H](N1)C(=O)OCC(C)(C)C2 [Compound A255]" readout_name=pIC50 measured_value="6.00 to 7.00"
molecule="CCn1c(-c2cccnc2[C@H](C)OC)c2c3cc(ccc31)-c1csc(n1)C[C@H](NC(=O)[C@H](C(C)C)N(C)C(=O)N1C[C@@H]3OCCN(C)[C@H]3C1)C(=O)N1CCC[C@H](N1)C(=O)OCC(C)(C)C2 [Compound A445]" readout_name=pIC50 measured_value="6.00 to 7.00"
molecule="CCn1c(-c2cccnc2[C@H](C)OC)c2c3cc(ccc31)-c1cc(O)cc(c1)C[C@H](NC(=O)[C@H](C(C)C)N(C)C(=O)C1CCCC1)C(=O)N1CCC[C@H](N1)C(=O)OCC(C)(C)C2 [Compound A219]" readout_name=pIC50 measured_value="7.00 to 8.00"
molecule="CCn1c(-c2cccnc2[C@H](C)OC)c2c3cc(ccc31)-c1cc(O)cc(c1)C[C@H](NC(=O)[C@H](C(C)C)N(C)C(=O)[C@@H]1C[C@@H]1F)C(=O)N1CCC[C@H](N1)C(=O)OCC(C)(C)C2 [Compound A160]" readout_name=pIC50 measured_value="7.00 to 8.00"
molecule="CCn1c(-c2cccnc2[C@H](C)OC)c2c3cc(ccc31)-c1cc(O)cc(c1)C[C@H](NC(=O)[C@H](C(C)C)N(C)C(=O)[C@H]1CN[C@@H]3CCO[C@H]13)C(=O)N1CCC[C@H](N1)C(=O)OCC(C)(C)C2 [Compound A231]" readout_name=pIC50 measured_value="7.00 to 8.00"
molecule="CCn1c(-c2cccnc2[C@H](C)OC)c2c3cc(ccc31)-c1cc(O)cc(c1)C[C@H](NC(=O)[C@H](C(C)C)N(C)C(=O)[C@H]1CNC[C@@H]1C)C(=O)N1CCC[C@H](N1)C(=O)OCC(C)(C)C2 [Compound A251]" readout_name=pIC50 measured_value="6.00 to 7.00"
molecule="CCn1c(-c2cnccc2COC)c2c3cc(ccc31)-c1cc(O)cc(c1)C[C@H](NC(=O)[C@H](C(C)C)N(C)C(=O)[C@H]1CN(C(C)=O)C[C@H]1C(F)(F)F)C(=O)N1CCC[C@H](N1)C(=O)OCC(C)(C)C2 [Compound A215]" readout_name=pIC50 measured_value="6.00 to 7.00"
molecule="CCn1c(-c2cccnc2[C@H](C)OC)c2c3cc(ccc31)-c1cc(O)cc(c1)C[C@H](NC(=O)[C@H](C(C)C)N(C)C(=O)C13CCC(CC1)O3)C(=O)N1CCC[C@H](N1)C(=O)OCC(C)(C)C2 [Compound A412]" readout_name=pIC50 measured_value="6.00 to 7.00"
molecule="CCn1c(-c2cccnc2[C@H](C)OC)c2c3cc(ccc31)-c1csc(n1)C[C@H](NC(=O)[C@H](C(C)C)N(C)C(=O)N1CC[C@@H]1C)C(=O)N1CCC[C@H](N1)C(=O)OCC(C)(C)C2 [Compound A304]" readout_name=pIC50 measured_value="7.00 to 8.00"
molecule="CCn1c(-c2cccnc2[C@H](C)OC)c2c3cc(ccc31)-c1cc(cc(C(F)F)c1)C[C@H](NC(=O)[C@H](C(C)C)N(C)C(=O)[C@@H]1OCC[C@@H]1c1ccccc1)C(=O)N1CCC[C@H](N1)C(=O)OCC(C)(C)C2 [Compound A592]" readout_name=pIC50 measured_value="6.00 to 7.00"
molecule="CCn1c(-c2cccnc2[C@H](C)OC)c2c3cc(ccc31)-c1cc(O)cc(c1)C[C@H](NC(=O)[C@H]1C[C@@H]1C)C(=O)N1CCC[C@H](N1)C(=O)OCC(C)(C)C2 [Compound A182]" readout_name=pIC50 measured_value="5.00 to 6.00"
molecule="CCn1c(-c2cccnc2[C@H](C)OC)c2c3cc(ccc31)-c1csc(n1)C[C@H](NC(=O)[C@H](C(C)C)N(C)C(=O)N1CC[C@@]3(CCNC3=O)C1)C(=O)N1CCC[C@H](N1)C(=O)OCC(C)(C)C2 [Compound A480]" readout_name=pIC50 measured_value="6.00 to 7.00"

// data source = patent US20250195521A1
